# Assayed System: RORγ ligand binding domain (Homo sapiens, UniProt P51449)
# Experimental Protocol: RORγ radioligand competition binding assay (SPA)
# Stated Conditions: competition with tritiated 2-(4-(ethylsulfonyl)phenyl)-N-(4-(2-(methoxymethyl)phenyl)thiophen-2-yl)acetamide (25 nM), hRORγ LBD
# Description: RORγ Radioligand Competition Binding Assay The aim of this assay is to identify compounds which bind to the RORγ ligand binding domain, by competing with tritiated 2-(4-(ethylsulfonyl)phenyl)-N-(4-(2-(methoxymethyl)phenyl)thiophen-2-yl)acetamide. […] Test plates were incubated for 16 hours and read using a LEADseeker Multimodality imaging instrument. The raw data was analysed and IC50 and Ki values for the compounds were calculated using Genedata Screener software. […]
Measured Quantity: IC50 (nM)
Unit nM implied. Number only.

Q) Let me know recorded IC50 for CC(=O)N1Cc2cc(S(C)(=O)=O)ccc2C1C(=O)Nc1ccc(C(CC(=O)OC(C)(C)C)(C(F)(F)F)C(F)(F)F)cc1 (stereo not shown) , thanks.
A) 15.8

Q) Report IC50, nothing else, for this compound: CC(=O)N1Cc2cc(S(=O)(=O)CC3CC3)ccc2C1C(=O)Nc1ccc(C(C#N)(C(F)(F)F)C(F)(F)F)cc1 (stereo not shown)
A) 6.31

Q) Output IC50 of CC(=O)N1Cc2cc(S(C)(=O)=O)ccc2C1C(=O)Nc1ccc(C(c2nnn(C)n2)(C(F)(F)F)C(F)(F)F)cc1 (stereo not shown)
A) 39.8

Q) Kindly indicate its recorded IC50. Item: COC(c1ccc(NC(=O)C2c3ccc(S(C)(=O)=O)cc3CN2C(C)=O)cc1)(C(F)(F)F)C(F)(F)F (stereo not shown)
A) 7.94

Q) Please report the measured IC50 for CC(=O)N1Cc2cc(S(C)(=O)=O)ccc2C1C(=O)Nc1ccc(C(CC(=O)N(C)C)(C(F)(F)F)C(F)(F)F)cc1 (stereo not shown)
A) 794

Q) Note down IC50 recorded for COC(=O)CC(c1ccc(NC(=O)C2NCc3cc(S(C)(=O)=O)ccc32)cc1)(C(F)(F)F)C(F)(F)F (stereo not shown)
A) 794

Q) Name the recorded IC50 of the item CC(=O)N1Cc2cc(S(C)(=O)=O)ccc2C1C(=O)Nc1ccc(C(CC(=O)NCCF)(C(F)(F)F)C(F)(F)F)cc1 (stereo not shown) in your answer.
A) 794

* * *

Hi there, I'd appreciate the recorded IC50 for every entry that follows.
# Tested on: human TH17 cells
# Experimental Protocol: Inhibition of IL-17 release from human TH17 cells
# Format: cell-based
# Stated Conditions: 96 h; isolated human TH17 cells cultured 4 days, IL-17A in supernatant by HTRF; read-out: pIC50 IL-17 release (converted)
Give your result in nM as a bare value.

Q) Return value of IC50 for input COC1(CNC(c2ccc(NC(=O)C3c4ccc(S(C)(=O)=O)cc4CN3C(C)=O)cc2)(C(F)(F)F)C(F)(F)F)CC1 (centres unmarked) [Example 18] , no commentary.
A) 25.1

Q) Entry CC(=O)N1Cc2cc(S(C)(=O)=O)ccc2C1C(=O)Nc1ccc(C(CC(=O)N(C)C)(C(F)(F)F)C(F)(F)F)cc1 (centres unmarked) [Example 42] needs its IC50 filled in; supply it.
A) 794

Q) Supply measured IC50 of COC(=O)CC(c1ccc(NC(=O)C2c3ccc(S(C)(=O)=O)cc3CN2C(C)=O)cc1)(C(F)(F)F)C(F)(F)F (centres unmarked) [Example 32] in your reply.
A) 15.8

Q) Respond only with IC50 recorded for CC(=O)N1Cc2cc(S(C)(=O)=O)ccc2C1C(=O)Nc1ccc(C(Cc2nc(C)no2)(C(F)(F)F)C(F)(F)F)cc1 (centres unmarked) [Example 34]
A) 20

Q) Give a short answer stating reported IC50 for CC(=O)N1Cc2cc(S(C)(=O)=O)ccc2C1C(=O)Nc1ccc(C(CC#N)(C(F)(F)F)C(F)(F)F)cc1 (centres unmarked) [Example 36] .
A) 63.1

Q) Assign IC50 to the following record: CC(=O)N1Cc2cc(S(C)(=O)=O)ccc2C1C(=O)Nc1ccc(C(CCF)(C(F)(F)F)C(F)(F)F)cc1 (centres unmarked) [Example 35]
A) 6.31

Q) Answer with reported IC50 of CC(=O)N1Cc2cc(S(C)(=O)=O)ccc2C1C(=O)Nc1ccc(C(NCCCS(C)(=O)=O)(C(F)(F)F)C(F)(F)F)cc1 (centres unmarked) [Example 22]
A) 794

Q) For the molecule N#CC(c1ccc(NC(=O)C2NCc3cc(S(=O)(=O)CC4CC4)ccc32)cc1)(C(F)(F)F)C(F)(F)F (centres unmarked) [Example 12] , give its reported IC50.
A) 25.1

Q) Read off the recorded IC50 for CC(=O)N1Cc2cc(S(C)(=O)=O)ccc2C1C(=O)Nc1ccc(C(NCCO)(C(F)(F)F)C(F)(F)F)cc1 (centres unmarked) [Example 21]
A) 100

Q) Please report the measured IC50 for COC(=O)CC(c1ccc(NC(=O)C2NCc3cc(S(C)(=O)=O)ccc32)cc1)(C(F)(F)F)C(F)(F)F (centres unmarked) [Example 31]
A) 200

Q) # return recorded IC50 for input CC(=O)N1Cc2cc(S(C)(=O)=O)ccc2C1C(=O)Nc1ccc(C(N2CCOCC2)(C(F)(F)F)C(F)(F)F)cc1 (centres unmarked) [Example 23]
A) 15.8

Q) Output IC50 of CCS(=O)(=O)c1ccc2c(c1)CN(C(C)=O)C2C(=O)Nc1ccc(C(C#N)(C(F)(F)F)C(F)(F)F)cc1 (centres unmarked) [Example 14]
A) 2.51

Q) # return recorded IC50 for input COCCNC(c1ccc(NC(=O)C2c3ccc(S(C)(=O)=O)cc3CN2C(C)=O)cc1)(C(F)(F)F)C(F)(F)F (centres unmarked) [Example 17]
A) 20

Q) Please supply the value of reported IC50 for the item CC(=O)N1Cc2cc(S(C)(=O)=O)ccc2C1C(=O)Nc1ccc(C(CC(=O)NC2CC2)(C(F)(F)F)C(F)(F)F)cc1 (centres unmarked) [Example 38]
A) 1000

Q) Provide measured IC50 value, entry: CC(=O)N1Cc2cc(S(C)(=O)=O)ccc2C1C(=O)Nc1ccc(C(c2nnn(C)n2)(C(F)(F)F)C(F)(F)F)cc1 (centres unmarked) [Example 30]
A) 25.1

Q) Using the record for CC(=O)NCCC(c1ccc(NC(=O)C2c3ccc(S(C)(=O)=O)cc3CN2C(C)=O)cc1)(C(F)(F)F)C(F)(F)F (centres unmarked) [Example 45] , state its measured IC50.
A) 3160

Q) Specify measured IC50 for CC(=O)N1Cc2cc(S(C)(=O)=O)ccc2C1C(=O)Nc1ccc(C(C#N)(C(F)(F)F)C(F)(F)F)cc1 (centres unmarked) [Example 2] .
A) 10

Q) // Input: CNC(=O)N1Cc2cc(S(C)(=O)=O)ccc2C1C(=O)Nc1ccc(C(C#N)(C(F)(F)F)C(F)(F)F)cc1 (centres unmarked) [Example 4] . Output its IC50 only.
A) 7.94

Q) Supply reported IC50 belonging to this molecule: CC(=O)N1Cc2cc(S(=O)(=O)CC3CC3)ccc2C1C(=O)Nc1ccc(C(C#N)(C(F)(F)F)C(F)(F)F)cc1 (centres unmarked) [Example 13]
A) 5.01

Q) Quote IC50 reported for CCOC(=O)CC(c1ccc(NC(=O)C2c3ccc(S(C)(=O)=O)cc3CN2C(C)=O)cc1)(C(F)(F)F)C(F)(F)F (centres unmarked) [Example 37] please.
A) 25.1

Q) Input CC(=O)N1Cc2cc(S(C)(=O)=O)ccc2C1C(=O)Nc1ccc(C(NC2COC2)(C(F)(F)F)C(F)(F)F)cc1 (centres unmarked) [Example 19] , output reported IC50.
A) 50.1

Q) Specify reported IC50 for the molecule shown: CS(=O)(=O)c1ccc2c(c1)CNC2C(=O)Nc1ccc(C(C#N)(C(F)(F)F)C(F)(F)F)cc1 (centres unmarked) [Example 1]
A) 100

Q) Using known records, supply IC50 for CC(=O)N1Cc2cc(S(C)(=O)=O)ccc2C1C(=O)Nc1ccc(C(CC(=O)NC(C)(C)C)(C(F)(F)F)C(F)(F)F)cc1 (centres unmarked) [Example 43]
A) 251

Q) Given the molecule CS(=O)(=O)c1ccc2c(c1)CN(C(=O)CO)C2C(=O)Nc1ccc(C(C#N)(C(F)(F)F)C(F)(F)F)cc1 (centres unmarked) [Example 5] , write its reported IC50.
A) 10

Q) Supply recorded IC50 for CC(=O)N1Cc2cc(S(C)(=O)=O)ccc2C1C(=O)Nc1ccc(C(NC2CCOCC2)(C(F)(F)F)C(F)(F)F)cc1 (centres unmarked) [Example 20] here.
A) 50.1

Q) Provide measured IC50 value, entry: CC(=O)N1Cc2cc(S(C)(=O)=O)ccc2C1C(=O)Nc1ccc(C(N2CCCC2)(C(F)(F)F)C(F)(F)F)cc1 (centres unmarked) [Example 15]
A) 3.98

Q) Identify the reported IC50 for the following entry. COC1(C(=O)N2Cc3cc(S(C)(=O)=O)ccc3C2C(=O)Nc2ccc(C(C#N)(C(F)(F)F)C(F)(F)F)cc2)CC1 (centres unmarked) [Example 3]
A) 15.8

Q) # return recorded IC50 for entry CC(=O)N1Cc2cc(S(C)(=O)=O)ccc2C1C(=O)Nc1ccc(C(CCO)(C(F)(F)F)C(F)(F)F)cc1 (centres unmarked) [Example 33]
A) 200
